method: Open-label PK trial of IV micafungin in infants on ECMO
condition.label: human, in vivo
Starred links: 1 amine or outer side, 2 acyl side, 3 side chain; linkers in the order of their positions; H or OH if unused. Positions of bridges follow the written chain, without caps; N, C: chain ends. Non-standard residues stand in square brackets, D forms with d. Residues, ends and D or L forms follow the SMILES beside them. *: point of attachment. hTyr(3S-OH,4S-OH,3'-OSO3H) = N[C@H](C(=O)O)[C@H](O)[C@@H](O)c1ccc(O)c(OS(=O)(=O)O)c1; Orn(4R-OH,5R-OH) = O=C([C@H](C[C@@H](O)[C@@H](O)N[*:3])N[*:1])[*:2]; Pro(3S-OH,4S-Me) = C[C@H]1CN[C@H](C(=O)O)[C@H]1O; X1 = CCCCCOc1ccc(-c2cc(-c3ccc(C(=O)*)cc3)no2)cc1; Gln(3R-OH) = NC(=O)C[C@@H](O)[C@H](N)C(=O)O; Hyp = O=C(O)[C@@H]1C[C@@H](O)CN1
reported.property: clearance (mL/min/kg)
// note: answer is a bare numeric in mL/min/kg

Q: Recorded clearance for CCCCCOc1ccc(-c2cc(-c3ccc(C(=O)N[C@H]4C[C@@H](O)[C@@H](O)NC(=O)[C@@H]5[C@@H](O)[C@@H](C)CN5C(=O)[C@H]([C@H](O)CC(N)=O)NC(=O)[C@H]([C@H](O)[C@@H](O)c5ccc(O)c(OS(=O)(=O)O)c5)NC(=O)[C@@H]5C[C@@H](O)CN5C(=O)[C@H]([C@@H](C)O)NC4=O)cc3)no2)cc1 [micafungin] (X1-[Orn(4R-OH,5R-OH)]T[Hyp][hTyr(3S-OH,4S-OH,3'-OSO3H)][Gln(3R-OH)][Pro(3S-OH,4S-Me)]; lactam 1-C) , please?
Ans: 0.683

---

method: Open-label PK trial of IV micafungin in infants on ECMO
condition.label: human, in vivo
Starred links: 1 amine or outer side, 2 acyl side, 3 side chain; linkers in the order of their positions; H or OH if unused. Positions of bridges follow the written chain, without caps; N, C: chain ends. Non-standard residues stand in square brackets, D forms with d. Residues, ends and D or L forms follow the SMILES beside them. *: point of attachment. hTyr(3S-OH,4S-OH,3'-OSO3H) = N[C@H](C(=O)O)[C@H](O)[C@@H](O)c1ccc(O)c(OS(=O)(=O)O)c1; Orn(4R-OH,5R-OH) = O=C([C@H](C[C@@H](O)[C@@H](O)N[*:3])N[*:1])[*:2]; Pro(3S-OH,4S-Me) = C[C@H]1CN[C@H](C(=O)O)[C@H]1O; X1 = CCCCCOc1ccc(-c2cc(-c3ccc(C(=O)*)cc3)no2)cc1; Gln(3R-OH) = NC(=O)C[C@@H](O)[C@H](N)C(=O)O; Hyp = O=C(O)[C@@H]1C[C@@H](O)CN1
reported.property: Vd (L/kg)
// note: answer is a bare numeric in L/kg

Q: Recorded Vd for CCCCCOc1ccc(-c2cc(-c3ccc(C(=O)N[C@H]4C[C@@H](O)[C@@H](O)NC(=O)[C@@H]5[C@@H](O)[C@@H](C)CN5C(=O)[C@H]([C@H](O)CC(N)=O)NC(=O)[C@H]([C@H](O)[C@@H](O)c5ccc(O)c(OS(=O)(=O)O)c5)NC(=O)[C@@H]5C[C@@H](O)CN5C(=O)[C@H]([C@@H](C)O)NC4=O)cc3)no2)cc1 [micafungin] (X1-[Orn(4R-OH,5R-OH)]T[Hyp][hTyr(3S-OH,4S-OH,3'-OSO3H)][Gln(3R-OH)][Pro(3S-OH,4S-Me)]; lactam 1-C) , please?
Ans: 0.64
